# MEASUREMENT NOTES: Thermal stability of the crystal form I and II, HPLC analysis
# Format: physicochemical
# REPORTED CONDITIONS: 60° C./5% RH, 0 week
Counter-ions that a name gives are not always drawn.
MEASURE NAME: stability (HPLC) (%)
Numbers only, in %.

// stability (HPLC) value for N[C@@H](CC(=O)N1CCc2c(nc(C(F)(F)F)nc2C(F)(F)F)C1)CN1CC(F)(F)CCC1=O [crystal form I, tartrate] : 99.4

More entries:
// recorded stability (HPLC) for N[C@@H](CC(=O)N1CCc2c(nc(C(F)(F)F)nc2C(F)(F)F)C1)CN1CC(F)(F)CCC1=O.N[C@@H](CC(=O)N1CCc2c(nc(C(F)(F)F)nc2C(F)(F)F)C1)CN1CC(F)(F)CCC1=O.O.O=C(O)C(O)C(O)C(=O)O.O=C(O)C(O)C(O)C(=O)O [crystal form II] : 98.4

* * *

Can you tell me stability (HPLC) for the items I'm about to list?
# MEASUREMENT NOTES: Thermal stability of the crystal form I and II, HPLC analysis
# Format: physicochemical
# REPORTED CONDITIONS: 40° C./75% RH, 2 weeks
Where a name gives a salt, the structure may show the parent alone.
Note: a bare number is incomplete; add the unit.

// input: 2 compounds below; output: stability (HPLC) for each
1. N[C@@H](CC(=O)N1CCc2c(nc(C(F)(F)F)nc2C(F)(F)F)C1)CN1CC(F)(F)CCC1=O [crystal form I, tartrate]
2. N[C@@H](CC(=O)N1CCc2c(nc(C(F)(F)F)nc2C(F)(F)F)C1)CN1CC(F)(F)CCC1=O.N[C@@H](CC(=O)N1CCc2c(nc(C(F)(F)F)nc2C(F)(F)F)C1)CN1CC(F)(F)CCC1=O.O.O=C(O)C(O)C(O)C(=O)O.O=C(O)C(O)C(O)C(=O)O [crystal form II]

["99.3%", "98.4%"]

* * *

# MEASUREMENT NOTES: Determination of density (bulk-density, tap-density, Carr index)
# Assay type: physicochemical
# REPORTED CONDITIONS: 50 ml measuring cylinder
Structures can show the parent of a compound that is named as a salt.
Please provide measured Bulk-density for the entries that follow.
One number for each entry, in g/mL.

Measured Bulk-density of N[C@@H](CC(=O)N1CCc2c(nc(C(F)(F)F)nc2C(F)(F)F)C1)CN1CC(F)(F)CCC1=O [crystal form I, tartrate] : 0.45

Then this molecule:
Reported Bulk-density for N[C@@H](CC(=O)N1CCc2c(nc(C(F)(F)F)nc2C(F)(F)F)C1)CN1CC(F)(F)CCC1=O.N[C@@H](CC(=O)N1CCc2c(nc(C(F)(F)F)nc2C(F)(F)F)C1)CN1CC(F)(F)CCC1=O.O.O=C(O)C(O)C(O)C(=O)O.O=C(O)C(O)C(O)C(=O)O [crystal form II] was 0.34

* * *

So I've got a bunch of compounds here, and I need their stability (HPLC) values.
# MEASUREMENT NOTES: Thermal stability of the crystal form I and II, HPLC analysis
# Type: physicochemical
# REPORTED CONDITIONS: 60° C./5% RH, 8 weeks
Structures can show the parent of a compound that is named as a salt.
One number for each entry, in %.

The compound listed as N[C@@H](CC(=O)N1CCc2c(nc(C(F)(F)F)nc2C(F)(F)F)C1)CN1CC(F)(F)CCC1=O [crystal form I, tartrate] shows stability (HPLC) equal to 98.4

Now, please, on to the next compound.
N[C@@H](CC(=O)N1CCc2c(nc(C(F)(F)F)nc2C(F)(F)F)C1)CN1CC(F)(F)CCC1=O.N[C@@H](CC(=O)N1CCc2c(nc(C(F)(F)F)nc2C(F)(F)F)C1)CN1CC(F)(F)CCC1=O.O.O=C(O)C(O)C(O)C(=O)O.O=C(O)C(O)C(O)C(=O)O [crystal form II] yielded stability (HPLC) of 97.5

* * *

# MEASUREMENT NOTES: Thermal stability of the crystal form I and II, HPLC analysis
# Type: physicochemical
# REPORTED CONDITIONS: 60° C./5% RH, 2 weeks
# Description: After 2 weeks, 4 weeks and 8 weeks, each sample was removed from Duma bottle and analyzed by XRD for identifying any change of the crystal form and HPLC for identifying the stability. For HPLC analysis the sample was dissolved in a mixture of acetonitrile/water/trifluoroacetic acid=30/70/0.1 (v/v/v) and then subjected to the analysis. The conditions for HPLC analysis are as follows: Column: Atlantis dC18 (4.6 mm I.D×250 mm L, Particle Size 5, μm, Waters) Column Temperature: 10° C. […]
Counter-ions that a name gives are not always drawn.
MEASURE NAME: stability (HPLC) (%)
Answers are plain numbers, in %.

Consider N[C@@H](CC(=O)N1CCc2c(nc(C(F)(F)F)nc2C(F)(F)F)C1)CN1CC(F)(F)CCC1=O.N[C@@H](CC(=O)N1CCc2c(nc(C(F)(F)F)nc2C(F)(F)F)C1)CN1CC(F)(F)CCC1=O.O.O=C(O)C(O)C(O)C(=O)O.O=C(O)C(O)C(O)C(=O)O [crystal form II] . Its measured stability (HPLC) is 98.1

# ---- query molecule ----
N[C@@H](CC(=O)N1CCc2c(nc(C(F)(F)F)nc2C(F)(F)F)C1)CN1CC(F)(F)CCC1=O [crystal form I, tartrate] yielded stability (HPLC) of 98.8

* * *

So I've got a bunch of compounds here, and I need their Tap-density values.
# MEASUREMENT NOTES: Determination of density (bulk-density, tap-density, Carr index)
# Assay type: physicochemical
# REPORTED CONDITIONS: ERWEKA densitometer, impulses 250 times
Counter-ions that a name gives are not always drawn.
# number then unit; no other words

GET /value?item= N[C@@H](CC(=O)N1CCc2c(nc(C(F)(F)F)nc2C(F)(F)F)C1)CN1CC(F)(F)CCC1=O.N[C@@H](CC(=O)N1CCc2c(nc(C(F)(F)F)nc2C(F)(F)F)C1)CN1CC(F)(F)CCC1=O.O.O=C(O)C(O)C(O)C(=O)O.O=C(O)C(O)C(O)C(=O)O [crystal form II] &field=Tap-density returns 0.44 g/mL

Further cases:
The reported Tap-density of the compound N[C@@H](CC(=O)N1CCc2c(nc(C(F)(F)F)nc2C(F)(F)F)C1)CN1CC(F)(F)CCC1=O [crystal form I, tartrate] was 0.54 g/mL
